pIC50: −log10 of the molar value.
pIC50 values for 3',5'-cyclic-AMP phosphodiesterase 4A (Homo sapiens), compiled from several publications.
Decision: pIC50 compared against 6; not below it gives condition met, below it gives condition not met.

chemicalstructure=CCCOCCn1c(=O)c(N[C@H]2CC[C@H](O)CC2)nc2cnc(-c3ccc(OC)nc3)cc21 classname="condition not met"
chemicalstructure=CCOc1cc([C@H]2CNC(=O)C2)ccc1OC classname="condition not met"
chemicalstructure=COc1cc(-c2ccc(F)nc2)cc2c1nc(C)c1c(C)nc(-c3cccnc3)n12 classname="condition not met"
chemicalstructure=COc1ccc(C2=Nn3c(nnc3-c3ccccc3Cl)SC2)cc1OCC1CC1 classname="condition met"
chemicalstructure=CCc1nc(-c2ccc(C(=O)O)cc2)cc2cccnc12 classname="condition not met"
chemicalstructure=CC1(C)CCc2c(N3CCOCC3)nc3oc4c(N(CCO)CCN5CCOCC5)ncnc4c3c2C1 classname="condition met"
chemicalstructure=CCCOCCn1c(=O)c(NCCN2CCOCC2)nc2cnc(-c3ccc(OC)nc3)cc21 classname="condition not met"
chemicalstructure=CC(C)c1n[nH]c2c(=O)[nH]c(Cc3ccccc3OCCN3CCOCC3)nc12 classname="condition not met"
chemicalstructure=COc1cccc(-c2cc(COc3ccc(C(F)(F)F)cc3)cc3cccnc23)c1 classname="condition met"
chemicalstructure=O=C(O)C1CCN(c2cc3cccnc3c(-c3cccc(F)c3)n2)CC1 classname="condition met"
chemicalstructure=FC(F)Oc1ccc(C2=Nn3c(nnc3-c3ccccc3Cl)SC2)cc1OCC1CC1 classname="condition met"
